Biological target: Laminin 421/521
Test: phage display, NGS count
Parameter Count: see the listing below.

{"binder": "QTLQTRH", "Count": 44}
{"binder": "CQGWPRPMC", "Count": 30}
{"binder": "CLHNGQRSC", "Count": 37}
{"binder": "FNSDSRSTHQED", "Count": 29}
{"binder": "GSGFRNEEHSAH", "Count": 51}
{"binder": "DIMKSPRSNLRS", "Count": 37}
{"binder": "CSKHNHSRC", "Count": 295}
{"binder": "WTKHNTPAHHLS", "Count": 89}

The reported numbers originate from patent US20240207421A1.
